- Tested on: Rattus norvegicus
- experimentNotes: Hypoglycemic activity by lowering blood glucose in normal rats by 20% after oral administration.
- Format: functional
valueKind: ED20
Record the result as a number with its unit.

Here are 5 compounds together with their reported answers.
N=C1N(C2CCCCC2)CCN1S(=O)(=O)c1ccc(CCNC(=O)c2cnccn2)cc1	0.12 mmol/kg
CCCC(=O)NCCc1ccc(S(=O)(=O)N2CCN(C3CCCCC3)C2=N)cc1	0.024 mmol/kg
N=C1N(C2CCCCC2)CCN1S(=O)(=O)c1ccc(CCNC(=O)CCN)cc1	0.065 mmol/kg
C/N=C(\S)NCCc1ccc(S(=O)(=O)N2CCN(C3CCCCC3)C2=N)cc1	0.031 mmol/kg
COc1ccc(C(=O)NCCc2ccc(S(=O)(=O)N3CCN(C4CCCCC4)C3=N)cc2)cc1OC	0.066 mmol/kg

Prompt: Quick one: ED20 of CCS(=O)(=O)CC(=O)NCCc1ccc(S(=O)(=O)N2CCN(C3CCCCC3)C2=N)cc1 ?
Completion: 0.11 mmol/kg

Prompt: Another compound to check: CCC/C=C/C(=O)NCCc1ccc(S(=O)(=O)N2CCN(C3CCCCC3)C2=N)cc1
Completion: 0.009 mmol/kg

Prompt: Another compound to check: CC[S+]([O-])CCC(=O)NCCc1ccc(S(=O)(=O)N2CCN(C3CCCCC3)C2=N)cc1 (configuration not stated)
Completion: 0.031 mmol/kg

Prompt: Another compound to check: CCCCCC/N=C(\S)NCCc1ccc(S(=O)(=O)N2CCN(C3CCCCC3)C2=N)cc1
Completion: 0.3 mmol/kg

Prompt: Another compound to check: COc1cccc(C(=O)NCCc2ccc(S(=O)(=O)N3CCN(C4CCCCC4)C3=N)cc2)c1
Completion: 0.062 mmol/kg

Prompt: Another compound to check: CCC[S+]([O-])CC(=O)NCCc1ccc(S(=O)(=O)N2CCN(C3CCCCC3)C2=N)cc1 (configuration not stated)
Completion: 0.071 mmol/kg

----------
- Tested on: Rattus norvegicus
- experimentNotes: Hypoglycemic activity by lowering blood glucose in normal rats by 20% after oral administration.
- Type: functional
Reported ED20 values follow for various compounds
Write the number in mmol/kg without appending the unit.

Here are 2 compounds together with their reported answers.
CC(=O)NCCc1ccc(S(=O)(=O)N2CCN(C3CCCCC3)C2=N)cc1	0.038
CCCCOC(=O)NCCc1ccc(S(=O)(=O)N2CCN(C3CCCCC3)C2=N)cc1	0.079

Prompt: // map CSCCC(=O)NCCc1ccc(S(=O)(=O)N2CCN(C3CCCCC3)C2=N)cc1 to recorded ED20 (system: Rattus norvegicus)
Completion: 0.053

Prompt: Another compound to check: CSc1ccccc1C(=O)NCCc1ccc(S(=O)(=O)N2CCN(C3CCCCC3)C2=N)cc1
Completion: 0.064

Prompt: Another compound to check: CCCOCC(=O)NCCc1ccc(S(=O)(=O)N2CCN(C3CCCCC3)C2=N)cc1
Completion: 0.1

----------
- Test system: Rattus norvegicus
- experimentNotes: Hypoglycemic activity by lowering blood glucose in normal rats by 20% after oral administration.
- Assay type: functional
Classification field. Basis: ED20. Definitions: 0 (below 0.01 mmol/kg), 1 (0.01 mmol/kg to below 0.07 mmol/kg), 2 (0.07 mmol/kg or more)

As a guide, the following entries are already answered.
CCCC/N=C(\S)NCCc1ccc(S(=O)(=O)N2CCN(C3CCCCC3)C2=N)cc1	1
CCOCC(=O)NCCc1ccc(S(=O)(=O)N2CCN(C3CCCCC3)C2=N)cc1	1
CCCSCC(=O)NCCc1ccc(S(=O)(=O)N2CCN(C3CCCCC3)C2=N)cc1	2
CCCCNC(=O)NCCc1ccc(S(=O)(=O)N2CCN(C3CCCCC3)C2=N)cc1	1
N=C1N(C2CCCCC2)CCN1S(=O)(=O)c1ccc(CCNC(=O)/C=C/c2ccccc2)cc1	2
CN(C)CC(=O)NCCc1ccc(S(=O)(=O)N2CCN(C3CCCCC3)C2=N)cc1	1
C/C=C(/C)C(=O)NCCc1ccc(S(=O)(=O)N2CCN(C3CCCCC3)C2=N)cc1	0
N=C1N(C2CCCCC2)CCN1S(=O)(=O)c1ccc(CCNC(=O)CNc2ccccc2)cc1	1

Prompt: Assign a bin to C/C=C\C(=O)NCCc1ccc(S(=O)(=O)N2CCN(C3CCCCC3)C2=N)cc1
Completion: 0

----------
- System: Rattus norvegicus
- experimentNotes: Hypoglycemic activity by lowering blood glucose in normal rats by 20% after oral administration.
- Assay type: functional
Criterion: ED20 meeting or surpassing 0.04 mmol/kg. Met: 1. Not met: 0.

As a guide, the following entries are already answered.
N=C1N(C2CCCCC2)CCN1S(=O)(=O)c1ccc(CCNC(=O)Oc2ccccc2)cc1	1
N=C1N(C2CCCCC2)CCN1S(=O)(=O)c1ccc(CCNC(=O)c2ccco2)cc1	0
N=C1N(C2CCCCC2)CCN1S(=O)(=O)c1ccc(CCNC(=O)c2cncnc2)cc1	1
N=C1N(C2CCCCC2)CCN1S(=O)(=O)c1ccc(CCNC(=O)C2CC=CCC2)cc1 (configuration not stated)	0
CC(C(=O)NCCc1ccc(S(=O)(=O)N2CCN(C3CCCCC3)C2=N)cc1)N(C)C (configuration not stated)	0
CC(C)CC(=O)NCCc1ccc(S(=O)(=O)N2CCN(C3CCCCC3)C2=N)cc1	1

Prompt: Is it the case that N=C1N(C2CCCCC2)CCN1S(=O)(=O)c1ccc(CCNC(=O)CCNc2ccccc2)cc1 has ED20 reaching or exceeding 0.04 mmol/kg?
Completion: 1

Prompt: Another molecule to check: N=C1N(C2CCCCC2)CCN1S(=O)(=O)c1ccc(CCNC(=O)c2cccs2)cc1
Completion: 0

Prompt: Another molecule to check: Cc1cc(C(=O)NCCc2ccc(S(=O)(=O)N3CCN(C4CCCCC4)C3=N)cc2)no1
Completion: 0

----------
- Tested on: Rattus norvegicus
- experimentNotes: Hypoglycemic activity by lowering blood glucose in normal rats by 50% after oral administration.
- Assay type: functional
valueKind: ED50 (µmol/kg)
Write the number in µmol/kg without appending the unit.

CC[S+]([O-])CCC(=O)NCCc1ccc(S(=O)(=O)N2CCN(C3CCCCC3)C2=N)cc1 (stereo not drawn)	200

Prompt: Quick one: ED50 of N=C1N(C2CCCCC2)CCN1S(=O)(=O)c1ccc(CCNC(=S)Nc2ccccc2)cc1 ?
Completion: 630

Prompt: Another compound to check: N=C1N(C2CCCCC2)CCN1S(=O)(=O)c1ccc(CCNC(=O)CCC2CCC2)cc1
Completion: 200

Prompt: Another compound to check: N=C1N(C2CCCCC2)CCN1S(=O)(=O)c1ccc(CCNC(=O)c2cccnc2)cc1
Completion: 160

Prompt: Another compound to check: CSCC(=O)NCCc1ccc(S(=O)(=O)N2CCN(C3CCCCC3)C2=N)cc1
Completion: 190

Prompt: Another compound to check: CCCCN(C)C(=O)NCCc1ccc(S(=O)(=O)N2CCN(C3CCCCC3)C2=N)cc1
Completion: 320

Prompt: Another compound to check: COCCC(=O)NCCc1ccc(S(=O)(=O)N2CCN(C3CCCCC3)C2=N)cc1
Completion: 220

----------
- System: Rattus norvegicus
- experimentNotes: Hypoglycemic activity by lowering blood glucose in normal rats by 20% after oral administration.
- Assay type: functional
valueKind: log10 of ED20 (log10 of the value in mmol/kg)
Give log10 of ED20, with ED20 taken in mmol/kg.

CC(Nc1ccccc1)C(=O)NCCc1ccc(S(=O)(=O)N2CCN(C3CCCCC3)C2=N)cc1 (stereo unspecified)	-1.22
Cc1cnc(C(=O)NCCc2ccc(S(=O)(=O)N3CCN(C4CCCCC4)C3=N)cc2)cn1	-2.00
N=C1N(C2CCCCC2)CCN1S(=O)(=O)c1ccc(CCNC(N)=O)cc1	-0.41

Prompt: Quick one: log10 of ED20 of CN(C)C(C(=O)NCCc1ccc(S(=O)(=O)N2CCN(C3CCCCC3)C2=N)cc1)c1ccccc1 (stereo unspecified) ?
Completion: -1.43

Prompt: Another compound to check: CC1=CCC(C(=O)NCCc2ccc(S(=O)(=O)N3CCN(C4CCCCC4)C3=N)cc2)CC1 (stereo unspecified)
Completion: -0.96

Prompt: Another compound to check: N=C1N(C2CCCCC2)CCN1S(=O)(=O)c1ccc(CCNC=O)cc1
Completion: -1.28

----------
Reported ED20 values follow for various compounds
- System: Rattus norvegicus
- experimentNotes: Hypoglycemic activity by lowering blood glucose in normal rats by 20% after oral administration.
- Type: functional
Write the number in mmol/kg without appending the unit.

Here are 2 compounds together with their reported answers.
CCOC(=O)NCCc1ccc(S(=O)(=O)N2CCN(C3CCCCC3)C2=N)cc1	0.035
N=C1N(C2CCCCC2)CCN1S(=O)(=O)c1ccc(CCNC(=O)C2CC2)cc1	0.034

Prompt: Quick one: ED20 of C=CC(=O)NCCc1ccc(S(=O)(=O)N2CCN(C3CCCCC3)C2=N)cc1 ?
Completion: 0.042

Prompt: Another compound to check: N=C1N(C2CCCCC2)CCN1S(=O)(=O)c1ccc(CCNC(=S)Nc2ccccc2)cc1
Completion: 0.063

Prompt: Another compound to check: COc1ccccc1C(=O)NCCc1ccc(S(=O)(=O)N2CCN(C3CCCCC3)C2=N)cc1
Completion: 0.093
